assayName: Solubility assessment (solvent added in 10 volume aliquots)
Type: physicochemical
testContext: IPA, organic solvent or mixture, thermodynamic from solid, IPA, 40 vols; read-out: Solubility assessment observation
measuredEndpoint: solubility

[ask] For the molecule shown here, C1=C2COC/C=C/COCc3cc(ccc3OCCN3CCCC3)Nc3nccc(n3)C(=C1)O2 , give the reported solubility.
[reply] < 25 mg/mL

---

assayName: Solubility assessment (solvent added in 10 volume aliquots)
Type: physicochemical
testContext: MEK, organic solvent or mixture, thermodynamic from solid, MEK, 20 vols; read-out: Solubility assessment observation
measuredEndpoint: solubility

[ask] Which solubility value belongs to C1=C2COC/C=C/COCc3cc(ccc3OCCN3CCCC3)Nc3nccc(n3)C(=C1)O2 [Batch 5] ?
[reply] < 50 mg/mL
